- target of assay: Cellular tumor antigen p53 (Homo sapiens)
- method description: nuclear p53 accumulation, HPV+ cells – imaging, p53-positive nuclei imaging, 24 h, 48 h (AID 1508601)
- condition description: 24/48 h, measured here: p53 positive nuclei at 24 h, stronger effect = higher value, concentration not given here
Out of some 5,700 compounds screened, about 85 (1%) were called active. The full list was thinned out, with actives kept by preference.
Examples of molecules with documented p53-positive nuclei, normalised follow.
Respond with the bare value in %.

Examples with their reported p53-positive nuclei, normalised follow.
>>> print(df.to_string())
                           smiles_structure  unit_string  data_value
0  Cc1occc1C(=O)Nc1ccccc1C(=O)N(C)Cc1ccccn1            %       0.178
1                   CCN(CC)C(=O)N1CCN(C)CC1            %     -0.0826

Query: Give the reported p53-positive nuclei, normalised for this molecule. "COc1cccc2ccc(-c3ccc(C(=O)N(C)C)cc3)nc12"
Response: 0.1

Query: Given "CCCCC/C=C/C/C=C/CCCCCCCC(=O)O" , respond with its p53-positive nuclei, normalised.
Response: -0.0851

Query: Hello, please tell me recorded p53-positive nuclei, normalised for this one: "CCCCCC(=O)/C=C/[C@H]1[C@H](O)CC(=O)[C@@H]1CCCCCCC(=O)O"
Response: -0.0183

Query: Please report the measured p53-positive nuclei, normalised for "O=S(=O)(NO)c1ccccc1"
Response: -0.0732

====

- method description: nuclear p53 accumulation, HPV+ cells – imaging, p53-positive nuclei imaging, 24 h, 48 h (AID 1508601)
- condition description: 24/48 h, measured here: cell number at 24 h, Library stock concentration: 278 uM
The campaign covered roughly 5,700 compounds. About 85 (1%) were called active. The sample holds actives, similar compounds and a random draw of the others, so the mix is not that of the screen. Peptide text beside a SMILES is read from it. * marks the point of attachment. Cbz = O=C(OCc1ccccc1)*
outcome measure: nuclei count, normalised (%)
Give the quantity in %, number only.

Known nuclei count, normalised results, listed for orientation:
compound	unit string	nuclei count, normalised
CC(C)CC(C=O)NC(=O)C(CC(C)C)NC(=O)C(CC(C)C)NC(=O)OCc1ccccc1 (stereo not drawn) (Cbz-Leu-Leu-Leu-aldehyde; configuration not given here)	%	112
O=C1CC(c2ccc([N+](=O)[O-])cc2)=NN1c1ccccc1	%	115
CN1CCc2c(c3ccccc3n2Cc2ccc(C(=O)NO)cc2)C1	%	120

Query: Supply recorded nuclei count, normalised for "Cc1cc(C)c(N(Cc2ccccc2)S(=O)(=O)c2ccc(OCCNC(=O)c3cc4ccccc4o3)cc2)c(C(=O)NO)c1" here.
Response: 102

Query: Give reported nuclei count, normalised value for "Nc1cccc(OCc2ccccc2)c1"
Response: 109

Query: Fill in reported nuclei count, normalised for this entry: "O=C1NCCSc2c1sc1ccc(O)cc21"
Response: 108

====

# nuclei count, normalised values compiled below
- method description: nuclear p53 accumulation, HPV+ cells – imaging, p53-positive nuclei imaging, 24 h, 48 h (AID 1508601)
- condition description: 24/48 h, measured here: cell number at 48 h, Library stock concentration: 2 mM
The whole screen tested about 5,700 compounds, of which about 85 (1%) were called active. This is one part of a sample in which actives are shown more often than they occur.
State the value, then name its unit.

Query: Answer with the recorded nuclei count, normalised for the compound listed here: O=C(Nc1ccc(-c2ccnc(Nc3ccc(N4CCOCC4)cc3)n2)cc1)C1CCCN1 (stereo unspecified)
Response: 104%

Query: Identify the reported nuclei count, normalised for the following entry. "CCN1CCN(Cc2ccc(NC(=O)c3ccc(C)c(Oc4ccnc5[nH]ccc45)c3)cc2C(F)(F)F)CC1"
Response: 111%

Query: Please list nuclei count, normalised recorded for the compound CC(C)CC(NC(=O)C(O)C(N)Cc1ccccc1)C(=O)O (stereo unspecified)
Response: 108%

Query: Quick one: give measured nuclei count, normalised for CC(C)CC(C(=O)NC(Cc1ccc(OCc2ccccc2)cc1)C(=O)NC(C)(C)C)N(C)Cc1ccc(C(C)(C)C)cc1 (stereo unspecified)
Response: 103%

Query: Note nuclei count, normalised for the compound shown: OC1CCC(Nc2ncc3nc(Nc4c(F)cc(F)cc4F)n(C4CCOC4)c3n2)CC1 (stereo unspecified)
Response: 112%

Query: Entry "CN1CCN(c2ccc(Nc3c4ccccc4nc4ccccc34)cc2)CC1" needs its nuclei count, normalised filled in; supply it.
Response: 48.7%

Query: Return nuclei count, normalised (reported value) for this compound: "NC(=O)c1ccc(-c2nc(-c3ccc4c(c3)OCCO4)c(-c3ccccn3)[nH]2)cc1"
Response: 103%

Query: Give a short answer stating reported nuclei count, normalised for CC(C)C(N)C(=O)NC(Cc1ccccc1)C(=O)O (stereo unspecified) .
Response: 103%

Query: Give nuclei count, normalised for CC(CCC(=O)O)C1CC[C@H]2[C@@H]3C(O)C[C@@H]4CC(O)CC[C@]4(C)[C@@H]3CC[C@]12C (stereo partly specified)
Response: 100%

Query: Please report nuclei count, normalised for the following compound: "CCCCc1ccc(N=CNO)c(C)c1"
Response: 107%

Query: Give reported nuclei count, normalised value for "COc1cc(=C2C=c3ccccc3=N2)[nH]c1=Cc1[nH]c(C)cc1C"
Response: 60.3%

Query: For CCc1cnn2c(NCc3ccc[n+]([O-])c3)cc(N3CCCCC3CCO)nc12 (stereo unspecified) , write its nuclei count, normalised.
Response: 16.3%
